Numbers sourced from PubChem BioAssay (NCI).

# System: SF-539 CNS
# Method: NCI-60 one-dose screen, 48 h
# Condition info: 10 µM unless noted
The panel holds about 83,000 compounds, 20% with a hit somewhere; the sample as a whole holds those more often. Activity calls are given as the source filed them. How the source made its calls: active means growth percent below 10; inactive means the rest.
The reply should name one outcome from class 1 = active, class 0 = inactive

QUERY: Record lookup: outcome of this test for `COc1ccc(Nc2nccc(N3CCN(c4c5ccc(Cl)cc5nc5ccc(OC)cc45)CC3)n2)cc1` ?
RESULT: class 0

QUERY: For `O=C(O)c1ccc(NC(=O)c2cccc(Nc3ccnc(C(F)(F)F)c3)c2)cc1` , which call appears in the assay record?
RESULT: class 0

QUERY: Which outcome was assigned to `N#Cc1cccc(/C=C(/C(=O)c2ccccc2)c2ccccc2)c1` in this test?
RESULT: class 0

QUERY: Hi, sorry to bother you, what did the test record for `O=C(NCCCO)c1cc(Cl)ccc1O` ?
RESULT: class 0

QUERY: Tell me the assay call for `[O-]/[N+](=C\C=C\c1ccccc1)c1ccccc1` please.
RESULT: class 0

QUERY: What did this assay record as the result for OC(Cc1cccnc1)c1ccccc1 (centres undefined) ?
RESULT: class 0

QUERY: Dear all, I need the recorded test outcome for `CCOc1cc(-c2ccc[nH]2)[nH]c1/C=C1\N=C(C)C(C(=O)OC)=C1C` , thank you.
RESULT: class 1

QUERY: Per the assay record, what outcome was assigned to `O=C1C(=O)c2ccc(Br)cc2-c2cc(Br)ccc21` ?
RESULT: class 0

QUERY: Hello, I am checking results. What call was entered for CC/C=C\C=C/C(=O)N/C=C/CC1Cc2cccc(O)c2C(=O)O1 (centres undefined) ?
RESULT: class 0

QUERY: Field: outcome | Entry: `Clc1ccc(-n2cnc3c(Cl)ncnc32)cc1Cl`
RESULT: class 0

QUERY: Which result was noted for this compound in the test: CC1=C(C(=O)Nc2ccccc2)C(c2ccc3c(c2)OCCO3)NC(=O)N1 (centres undefined)
RESULT: class 0

QUERY: Look up the recorded call for `NC(=O)SCC(=O)Nc1ccccc1-c1ccccc1` in this test.
RESULT: class 0

QUERY: Short answer needed: outcome of this test for `CCCc1cc(=O)n2c(C(=O)Nc3ccccc3OC)c(C(=O)Nc3ccc(F)cc3)sc2n1` ?
RESULT: class 1

QUERY: What did this assay record as the result for `CCOc1ccccc1C(=O)OCC(=O)Nc1cccc(S(=O)(=O)N(C)C)c1` ?
RESULT: class 0

QUERY: Returns: the outcome recorded for `O=C(Nc1ccccc1Cl)c1cnc2ccc(C3CCNCC3)cn12` in this assay.
RESULT: class 0

QUERY: Can you look up the reported call for `Cc1cc(C(=O)O)c(C)cc1C(=O)O` for me?
RESULT: class 0

QUERY: Per the records of this test, what outcome belongs to `O=C(O)c1ccc(NC(=O)c2ccc(Nc3ccnc(C(F)(F)F)c3)cc2)cc1` ?
RESULT: class 0

QUERY: Write down the call the test reported for this compound. Item: `COc1ccc(/C=N\Nc2ccc([N+](=O)[O-])cn2)cc1OC`
RESULT: class 0

QUERY: Please share the test call associated with `CCS(=O)(=O)OCCCl` .
RESULT: class 0

QUERY: Any idea what this test logged for `O=C1/C(=N/O)CCc2ccccc21` ?
RESULT: class 0

QUERY: Assay result, entry `COc1ccc(/C=C2\NC(=S)NC2=O)cc1` — outcome?
RESULT: class 0

QUERY: Look up the recorded call for `Cc1cc(C)n(C(=O)c2nn(-c3ccc(Cl)cc3)cc2O)n1` in this test.
RESULT: class 0

QUERY: For `Cc1ccccc1NC(=O)c1cc2ccccc2cc1O` , which call appears in the assay record?
RESULT: class 0

QUERY: Outcome? `COc1ccc2[nH]c(-c3ccccc3)cc2c1`
RESULT: class 0
